- TEST PARAMETERS: in ethanol, 318.15 K
MEASURED METRIC: solubility (mole fraction)
Please state the value as a number alone, without comment.

Query: What does the record list as solubility (mole fraction) for CC(C)(C)OC(=O)N[C@@H](CCCN=C(N)N[N+](=O)[O-])C(=O)O ?
Response: 0.0563

====

- TEST PARAMETERS: in isopropanol, 313.15 K
MEASURED METRIC: solubility (mole fraction)
Lab note: jot down the number only; don't add units.

Query: I'd like to know its solubility (mole fraction). The compound in question is CC(C)(C)OC(=O)N[C@@H](CCCN=C(N)N[N+](=O)[O-])C(=O)O
Response: 0.0184

====

- TEST PARAMETERS: in methanol, 323.15 K
MEASURED METRIC: solubility (mole fraction)
Number only, no unit.

Query: Which solubility (mole fraction) is listed for CC(C)(C)OC(=O)N[C@@H](CCCN=C(N)N[N+](=O)[O-])C(=O)O ?
Response: 0.111

====

- TEST PARAMETERS: in n-propanol, 288.15 K
MEASURED METRIC: solubility (mole fraction)
A bare number is all that is needed in reply.

Query: Recorded solubility (mole fraction) of CC(C)(C)OC(=O)N[C@@H](CCCN=C(N)N[N+](=O)[O-])C(=O)O , please.
Response: 0.00744

====

- TEST PARAMETERS: in methanol, 283.15 K
MEASURED METRIC: solubility (mole fraction)
Could you keep your reply to the number by itself?

Query: Dear colleague, I am looking for the recorded solubility (mole fraction) of the following compound: CC(C)(C)OC(=O)N[C@@H](CCCN=C(N)N[N+](=O)[O-])C(=O)O
Response: 0.042

====

- TEST PARAMETERS: in sec-butanol, 303.15 K
MEASURED METRIC: solubility (mole fraction)
No unit in the answer, please; the number alone is enough.

Query: State the recorded solubility (mole fraction) for this entry: CC(C)(C)OC(=O)N[C@@H](CCCN=C(N)N[N+](=O)[O-])C(=O)O
Response: 0.0113

====

- TEST PARAMETERS: in ethyl acetate, 298.15 K
MEASURED METRIC: solubility (mole fraction)
In your answer, state the number alone without any accompanying words.

Query: For the molecule shown here, CC(C)(C)OC(=O)N[C@@H](CCCN=C(N)N[N+](=O)[O-])C(=O)O , give the reported solubility (mole fraction).
Response: 0.00104

====

- TEST PARAMETERS: in n-butanol, 318.15 K
MEASURED METRIC: solubility (mole fraction)
In your answer, state the number alone without any accompanying words.

Query: For the molecule shown here, CC(C)(C)OC(=O)N[C@@H](CCCN=C(N)N[N+](=O)[O-])C(=O)O , give the reported solubility (mole fraction).
Response: 0.0142

====

- TEST PARAMETERS: in DMF, 303.15 K
MEASURED METRIC: solubility (mole fraction)
Lab note: record just the number, no unit beside it.

Query: For the compound shown here, CC(C)(C)OC(=O)N[C@@H](CCCN=C(N)N[N+](=O)[O-])C(=O)O , give the reported solubility (mole fraction).
Response: 0.29

====

- TEST PARAMETERS: in ethyl acetate, 303.15 K
MEASURED METRIC: solubility (mole fraction)
// no unit, no text: just the number

Query: Item under review: CC(C)(C)OC(=O)N[C@@H](CCCN=C(N)N[N+](=O)[O-])C(=O)O . Reported solubility (mole fraction)?
Response: 0.00114
